The origin of these recorded values is PubChem BioAssay (EPA / NIEHS).

Read-out: Forkhead box O1 (FOXO1), FOXO1 (gene 2308)
PROTOCOL: LTEA_HepaRG_FOXO1: Life Technologies and Expression Analysis (LTEA) Assay for Forkhead box O1 (FOXO1) using HepaRG (AID 2283456)
CONDITION_PARAMETERS: mRNA level, 48 h; actives raise or lower the signal
Calls of active or inactive are those of the source. Rule for the calls: active = hit-call score of the fitted dose curve at least 0.9, where 1 is the maximum; inactive = score below 0.9.
Response enum: 1 (yes) for active, 0 (no) for inactive

Entry O=C(O)c1cc(Oc2ccc(C(F)(F)F)cc2Cl)ccc1[N+](=O)[O-] : call = ?
0 (no)

# iterate: COc1ccc(C(=CC(=O)N2CCOCC2)c2ccc(Cl)cc2)cc1OC
0 (no)

# iterate: O=c1ccc(=O)[nH][nH]1
0 (no)

# iterate: CCc1cccc(CC)c1N(COC)C(=O)CCl
0 (no)

# iterate: CC1(C(=O)Nc2ccc(O)c(Cl)c2Cl)CCCCC1
0 (no)

# iterate: CCOP(=S)(OCC)Oc1ccc([N+](=O)[O-])cc1
0 (no)

# iterate: N#CSCSC#N
1 (yes)

# iterate: CCc1cnc(C2=NC(C)(C(C)C)C(=O)N2)c(C(=O)O)c1 (centres undefined)
0 (no)

# iterate: C[Si](Cn1cncn1)(c1ccc(F)cc1)c1ccc(F)cc1
1 (yes)

# iterate: CSc1nnc(C(C)(C)C)c(=O)n1N
0 (no)

# iterate: C#CC(C)(C)NC(=O)c1cc(Cl)cc(Cl)c1
0 (no)

# iterate: CC(COc1ccc(Oc2ccccc2)cc1)Oc1ccccn1 (centres undefined)
0 (no)

# iterate: Cc1nn(-c2cc(NS(C)(=O)=O)c(Cl)cc2Cl)c(=O)n1C(F)F
0 (no)

# iterate: CNC(=O)ON=C(SC)C(=O)N(C)C
0 (no)

# iterate: CCCOc1nn(C(=O)NS(=O)(=O)c2ccccc2C(=O)OC)c(=O)n1C
0 (no)

# iterate: COP(=O)(OC)SCn1c(=O)oc2cc(Cl)cnc21
0 (no)

# iterate: CCCOCC(=Nc1ccc(Cl)cc1C(F)(F)F)n1ccnc1
1 (yes)

# iterate: C[N+]1(C)CCCCC1
0 (no)

# iterate: CCCCOC(=O)c1ccccc1C(=O)O
0 (no)

# iterate: Nc1c(Cl)cc([N+](=O)[O-])cc1Cl
0 (no)

# iterate: CNC(=O)ON=C(C)SC
0 (no)

# iterate: CCOP(=S)(OCC)Oc1cc(C)nc(C(C)C)n1
0 (no)

# iterate: CN(C)[C@@H]1C(=O)C(C(N)=O)=C(O)[C@@]2(O)C(=O)C3=C(O)c4c(O)cccc4[C@@](C)(O)[C@H]3[C@H](O)[C@@H]12
0 (no)

# iterate: CN(C)NC(=O)CCC(=O)O
0 (no)

# iterate: CC1=NNC(=O)N(/N=C/c2cccnc2)C1
0 (no)

# iterate: CC(C)N(C(=O)SCC(Cl)=C(Cl)Cl)C(C)C
0 (no)

# iterate: CSC1=N[C@@](C)(c2ccccc2)C(=O)N1Nc1ccccc1
1 (yes)

# iterate: CCCSP(=O)(OCC)SCCC
0 (no)

# iterate: CCC(=NOC/C=C/Cl)C1=C(O)CC(C2CCOCC2)CC1=O (centres undefined)
0 (no)

# iterate: CCOC(=O)COc1cc(-c2nn(C)c(OC(F)F)c2Cl)c(F)cc1Cl
0 (no)

# iterate: COc1cccc(C(=O)NN(C(=O)c2cc(C)cc(C)c2)C(C)(C)C)c1C
0 (no)

# iterate: CCCSP(=O)(OCC)Oc1ccc(Br)cc1Cl (centres undefined)
0 (no)

# iterate: C#CCC1=C(C)C(OC(=O)C2C(C=C(C)C)C2(C)C)CC1=O (centres undefined)
0 (no)

# iterate: CCCCN(CC)c1c([N+](=O)[O-])cc(C(F)(F)F)cc1[N+](=O)[O-]
0 (no)

# iterate: FC(F)C(F)(F)OCC(Cn1cncn1)c1ccc(Cl)cc1Cl (centres undefined)
1 (yes)

# iterate: CCCCOC(=O)[C@@H](C)Oc1ccc(Oc2ccc(C#N)cc2F)cc1
0 (no)

# iterate: CCOP(=S)(OCC)OC(Cl)C(Cl)(Cl)Cl (centres undefined)
0 (no)

# iterate: CNc1cnn(-c2cccc(C(F)(F)F)c2)c(=O)c1Cl
0 (no)

# iterate: CON=C(C(=O)OC)c1ccccc1CON=C(C)c1cccc(C(F)(F)F)c1
0 (no)

# iterate: S=C1NCCN1
0 (no)

# iterate: Cc1ccn2nc(S(=O)(=O)Nc3c(F)cccc3F)nc2n1
0 (no)

# iterate: COP(=O)(NC(C)=O)SC (centres undefined)
0 (no)

# iterate: CC(Oc1cccc(Cl)c1)C(=O)O (centres undefined)
0 (no)

# iterate: COc1cc(OC)nc(Sc2cccc(Cl)c2C(=O)O)n1
0 (no)
